For each record, write down the corresponding MIC.
tested on: Klebsiella pneumoniae; assay: Inhibition of KPC-2/SHV12/TEM-1 in Klebsiella pneumoniae CDC-0361 assessed as meropenem antibacterial activity at 4 ug/ml after 16 to 20 hrs by CLSI-based microbroth dilution method (reference value: […] ug/ml)
One number for each entry, in µg/mL.

The examples below pair each entry with its known result.
>>> numeric_readout("O=C(O)C[C@@H]1CC[C@H](NC(=O)Cc2cccs2)B(O)O1")
0.06
>>> numeric_readout("NCCN[C@H]1CC[C@H](CC(=O)N[C@H]2Cc3cccc(C(=O)O)c3OB2O)CC1")
0.015
>>> numeric_readout("N[C@H]1CC[C@H](CC(=O)N[C@H]2Cc3cccc(C(=O)O)c3OB2O)CC1")
0.015

List reported MIC for each of these compounds:
1. NC(=O)[C@@H]1CC[C@@H]2CN1C(=O)N2OS(=O)(=O)O
2. NCc1ccc(CC(=O)N[C@H]2Cc3cccc(C(=O)O)c3OB2O)cc1
3. CC(=O)N[C@H]1Cc2cccc(C(=O)O)c2OB1O

Result:
0.015
0.0079
0.0079
